Every entry's value here was drawn from patent US20260158014A1.

Test: 72-week population pharmacokinetic analysis in patients with SCD
Assay type: in vivo, human
Conditions: human, plasma, oral; read-out: apparent volume of distribution of the central compartment
property_label: Vd (L)
Value expressed in L; do not type the unit.

Summary for this compound, CC(C)n1nccc1-c1ncccc1COc1cccc(O)c1C=O : Vd is 333
